All values here come from patent US20180185504A1.

Readings of IC50, cell viability, PC3/PRLR cells for the listed binders
Target: T1, human prolactin receptor (PRLR) (human, UniProt P16471 25-622)
T1 sequence: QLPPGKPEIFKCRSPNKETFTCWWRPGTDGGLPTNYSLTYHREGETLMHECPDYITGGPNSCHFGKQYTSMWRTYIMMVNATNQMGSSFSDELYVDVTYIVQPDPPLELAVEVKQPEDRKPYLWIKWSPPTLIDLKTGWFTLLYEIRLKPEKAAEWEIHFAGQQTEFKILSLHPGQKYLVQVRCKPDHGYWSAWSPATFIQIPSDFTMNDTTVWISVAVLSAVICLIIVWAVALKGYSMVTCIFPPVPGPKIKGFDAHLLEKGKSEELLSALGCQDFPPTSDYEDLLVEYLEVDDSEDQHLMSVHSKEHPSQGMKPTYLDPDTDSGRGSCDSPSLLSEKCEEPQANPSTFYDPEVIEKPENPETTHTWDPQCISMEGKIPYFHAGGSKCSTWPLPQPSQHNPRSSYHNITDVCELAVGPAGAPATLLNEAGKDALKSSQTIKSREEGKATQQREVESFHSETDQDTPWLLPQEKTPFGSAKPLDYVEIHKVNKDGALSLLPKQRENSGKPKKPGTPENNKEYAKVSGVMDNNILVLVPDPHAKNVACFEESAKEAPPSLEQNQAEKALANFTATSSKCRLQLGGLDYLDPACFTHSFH
Test: cell-based or functional assay
Respond with the bare value in nM.

H1H6762P-DM1 (antibody, human IgG1, V domains shown, DM1 conjugated through SMCC linker; attachment residues not stated) VH: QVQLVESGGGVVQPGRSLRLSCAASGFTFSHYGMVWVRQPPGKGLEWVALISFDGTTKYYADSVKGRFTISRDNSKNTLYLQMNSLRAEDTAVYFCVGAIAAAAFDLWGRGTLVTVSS VL: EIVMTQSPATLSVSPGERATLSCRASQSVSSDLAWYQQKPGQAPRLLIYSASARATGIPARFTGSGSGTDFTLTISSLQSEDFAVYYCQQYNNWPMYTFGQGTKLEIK : 0.98
H1H6953N-DM1 (antibody, human IgG1, V domains shown, DM1 conjugated through SMCC linker; attachment residues not stated) VH: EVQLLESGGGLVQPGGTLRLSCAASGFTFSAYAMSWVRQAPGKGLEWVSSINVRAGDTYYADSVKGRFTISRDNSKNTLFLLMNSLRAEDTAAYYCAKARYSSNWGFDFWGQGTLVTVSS VL: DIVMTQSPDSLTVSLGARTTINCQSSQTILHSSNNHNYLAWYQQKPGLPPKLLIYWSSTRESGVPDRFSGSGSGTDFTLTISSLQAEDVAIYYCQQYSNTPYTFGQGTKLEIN : 0.86
H1H6975N-DM1 (antibody, human IgG1, V domains shown, DM1 conjugated through SMCC linker; attachment residues not stated) VH: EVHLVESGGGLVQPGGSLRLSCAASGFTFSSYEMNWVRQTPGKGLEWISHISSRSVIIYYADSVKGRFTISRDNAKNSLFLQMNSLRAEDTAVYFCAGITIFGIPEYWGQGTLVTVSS VL: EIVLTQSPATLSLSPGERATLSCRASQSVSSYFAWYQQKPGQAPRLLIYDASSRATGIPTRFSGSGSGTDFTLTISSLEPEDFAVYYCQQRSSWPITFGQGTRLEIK : 2.7
H1H6958N2-DM1 (antibody, human IgG1, V domains shown, DM1 conjugated through SMCC linker; attachment residues not stated) VH: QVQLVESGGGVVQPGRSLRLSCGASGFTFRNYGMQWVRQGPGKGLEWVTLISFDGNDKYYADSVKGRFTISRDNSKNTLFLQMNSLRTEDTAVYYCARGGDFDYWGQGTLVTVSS VL: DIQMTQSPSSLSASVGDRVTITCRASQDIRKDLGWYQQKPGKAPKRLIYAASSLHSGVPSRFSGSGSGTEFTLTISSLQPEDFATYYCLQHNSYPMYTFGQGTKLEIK : 0.43

Now consider the entry below.
Could you share which IC50, cell viability, PC3/PRLR cells value was measured for H1H6782P-DM1 (antibody, human IgG1, V domains shown, DM1 conjugated through SMCC linker; attachment residues not stated) VH: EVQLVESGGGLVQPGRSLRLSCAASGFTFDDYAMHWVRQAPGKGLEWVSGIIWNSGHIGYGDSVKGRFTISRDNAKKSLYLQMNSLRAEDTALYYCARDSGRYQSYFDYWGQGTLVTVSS VL: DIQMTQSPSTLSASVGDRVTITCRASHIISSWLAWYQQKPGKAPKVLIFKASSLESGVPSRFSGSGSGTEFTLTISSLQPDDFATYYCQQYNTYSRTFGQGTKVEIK ?
0.92
